- Test system: Saccharomyces cerevisiae;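 note: PSI is a weighted mean of sequencing reads over stability bins, variants kept only with over 10 reads, mCherry proximal and sfGFP distal, peptide attached via GGGS linker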
- experiment_summary: protein stability index of tFT-peptide fusion (C-terminal peptide) (PSI (0-1 scale)); higher = more stable (slower turnover)
- condition_description: genetic background: wild type; temperature: 30 C
parameter_measured: protein stability index
# respond with the number and nothing more

Recorded protein stability index, per entry:
## Input For RCEGRRIEQSGK , what is its reported protein stability index?
## Output 0.704

## Input For PPTTPHPTPTAP , what is its reported protein stability index?
## Output 0.689

## Input For VCRGAIPIERFR , what is its reported protein stability index?
## Output 0.715

## Input For PHFLNNRNTIRR , what is its reported protein stability index?
## Output 0.714

## Input For PIPPHGTPPAAY , what is its reported protein stability index?
## Output 0.694

Next:
## Input For GASSSPAQGCSL , what is its reported protein stability index?
## Output 0.691

## Input For DVRMGCVGVSNI , what is its reported protein stability index?
## Output 0.71
